Catalogue of pIC50 values
target: DRB1*1501 (Homo sapiens, UniProt P01903+P01911); test: biochemical; type: binding
Interpret pIC50 as the negative base-10 log of the concentration measured in mol/L.

INSERT INTO results (molecule, measurement_label, numeric_result) VALUES
  ('CC[C@H](C)[C@H](NC(=O)CNC(=O)[C@H](CCC(=O)O)NC(=O)[C@H](Cc1c[nH]cn1)NC(=O)[C@@H](NC(=O)[C@H](Cc1ccc(O)cc1)NC(=O)[C@H](Cc1ccc(O)cc1)NC(=O)[C@H](CC(C)C)NC(=O)CN)C(C)C)C(=O)N[C@@H](CCCNC(=N)N)C(=O)N[C@H](C(=O)N[C@@H](Cc1ccc(O)cc1)C(=O)N[C@@H](Cc1ccccc1)C(=O)N[C@H](C(=O)N[C@@H](CCC(N)=O)C(=O)O)C(C)C)[C@@H](C)O [Peptide 90.0171]', 'pIC50', 5.79);

Now look at this one.
Q: # get_value(readout='pIC50', item= CC[C@H](C)[C@H](N)C(=O)N[C@@H](CCC(=O)O)C(=O)N[C@@H](Cc1ccccc1)C(=O)N[C@H](C(=O)N[C@H](C(=O)N[C@@H](Cc1ccccc1)C(=O)N[C@@H](CC(C)C)C(=O)NCC(=O)N[C@@H](C)C(=O)N[C@@H](CC(C)C)C(=O)N[C@@H](CCCCN)C(=O)N[C@@H](CO)C(=O)N[C@@H](Cc1ccccc1)C(=O)N[C@@H](CC(C)C)C(=O)N[C@@H](CCCCN)C(=O)O)[C@@H](C)O)[C@@H](C)CC [Peptide 89.0033] )
A: 7.11

---

target: DRB1*0405 (Homo sapiens, UniProt P01903+P01911, A100R/A169T/D86S/F76Y/I96L/K127E/L162R/M171V/N62H/P40V/Q125Y/R42H/S133A/S149N/S66Y/V115G/V209L/W38E); experiment: biochemical; assay type: binding
No end group written: not given here.
We begin with a simple list: items and their reported log10 IC50.
Values reflect log10 of reported IC50 (µM).

INSERT INTO results (sequence_entry, numeric_result) VALUES
  ('HKAIELQMALKGLAQ [Peptide 90.0004]', 0.52),
  ('DHDITDDSDIAYKYA [Peptide 90.0117]', 0.34),
  ('LYCYEQLSDSSDEDE [Peptide 1543.13]', -1.05),
  ('IHFLQGAIISFVNSN [Peptide 89.0089]', 0.42),
  ('DSVDSVNCGVISAAA [Peptide 1601.24]', 1.13),
  ('ELQMALKGLAQSKYN [Peptide 90.0005]', 0.77);

Q: log10 IC50 for VMFLRYQGVEFMSFL [Peptide 89.0014] ?
A: -0.20

Q: Requested read-out: log10 IC50. Entry: EVQIALESLSTTIYN [Peptide 90.0231]
A: 0.63

---

target: A*3301 (Homo sapiens, UniProt P04439, A270S/D185E/E176V/E277Q/E87N/F33T/G231S/H175R/I121M/I218V/I322F/K168Q/K210R/L300P/L318F/M331R/P217A/Q86R/Q94H/R138Q/T323A/T345S/T97I/V358M/Y195H); experiment: biochemical; format: binding
No end group written: not given here.
# pIC50 per entry
pIC50 here: minus log base 10 of the concentration, concentration in moles per litre.

Below are worked cases with known answers.
INSERT INTO measurements (sequence_entry, measurement_label, numeric_result) VALUES
  ('AVMCRHYKR [Peptide 1587.53]', 'pIC50', 7.23),
  ('SFFSRTWCK [Peptide 88.0363]', 'pIC50', 8.40),
  ('EFTAFLVAFK [Peptide 88.0193]', 'pIC50', 6.90),
  ('DSNACAFLK [Peptide 1587.33]', 'pIC50', 7.41);

Field: next sequence
Q: What pIC50 value was documented for this sequence, GTVFGILIKR [Peptide 9012.0243] ?
A: 5.50

---

target: DRB1*0802 (Homo sapiens, UniProt P01903+P01911, A100R/A103L/A169T/F76Y/H45Y/I96F/K41T/L162R/M171V/P40S/Q125H/Q178H/Q39Y/Q99D/R218S/R42G/S66Y/V115G/W38E); assay: biochemical; assay type: binding
pIC50: −log10 of the molar value.
# key: entry, value: pIC50

INSERT INTO assay_data (compound, result) VALUES
  ('CC[C@H](C)[C@H](NC(=O)[C@H](CO)NC(=O)[C@H](CO)NC(=O)[C@H](CC(=O)O)NC(=O)[C@H](C)NC(=O)[C@H](CC(N)=O)NC(=O)[C@@H](NC(=O)[C@H](Cc1ccc(O)cc1)NC(=O)[C@H](C)NC(=O)[C@@H](NC(=O)CNC(=O)[C@H](CCCNC(=N)N)NC(=O)[C@@H](N)CCC(=O)O)C(C)C)[C@@H](C)CC)C(=O)N[C@@H](CCC(=O)O)C(=O)NCC(=O)O [Peptide 68.0109]', '< 4.70'),
  ('CC[C@H](C)[C@H](NC(=O)[C@@H](N)CCCCN)C(=O)N[C@@H](Cc1ccccc1)C(=O)NCC(=O)N[C@@H](CO)C(=O)N[C@@H](CC(C)C)C(=O)N[C@@H](C)C(=O)N[C@@H](Cc1ccccc1)C(=O)N[C@@H](CC(C)C)C(=O)N1CCC[C@H]1C(=O)N[C@@H](CCC(=O)O)C(=O)N[C@@H](CO)C(=O)N[C@@H](Cc1ccccc1)C(=O)N[C@@H](CC(=O)O)C(=O)NCC(=O)N[C@@H](CC(=O)O)C(=O)N1CCC[C@H]1C(=O)N[C@@H](C)C(=O)O [Peptide 1533.07]', '< 4.70'),
  ('CC[C@H](C)[C@H](NC(=O)[C@H](Cc1c[nH]c2ccccc12)NC(=O)[C@H](CCC(=O)O)NC(=O)[C@@H]1CCCN1)C(=O)N[C@@H](CCC(N)=O)C(=O)N[C@@H](CCCNC(=N)N)C(=O)N[C@@H](CCC(N)=O)C(=O)N[C@H](C(=O)N[C@H](C(=O)N[C@@H](CC(C)C)C(=O)N[C@@H](CCC(N)=O)C(=O)N[C@@H](Cc1c[nH]cn1)C(=O)N[C@@H](CO)C(=O)N[C@@H](Cc1ccccc1)C(=O)N[C@@H](CC(N)=O)C(=O)O)C(C)C)[C@@H](C)O [Peptide 89.0011]', 6.67);

Q: Endpoint output: pIC50 of CC[C@H](C)[C@H](NC(=O)[C@H](CO)NC(=O)[C@H](CC(N)=O)NC(=O)[C@H](C)NC(=O)[C@H](CC(C)C)NC(=O)[C@H](CCC(=O)O)NC(=O)[C@H](Cc1ccccc1)NC(=O)[C@@H](N)C(C)C)C(=O)N[C@H](C(=O)N[C@@H](CC(C)C)C(=O)N1CCC[C@H]1C(=O)N[C@@H](Cc1ccccc1)C(=O)N[C@@H](CC(=O)O)C(=O)N[C@@H](CS)C(=O)N[C@@H](CCCNC(=N)N)C(=O)O)C(C)C [Peptide 68.0124] . Value?
A: < 4.70

Q: Entry under review: CC[C@H](C)[C@H](NC(=O)[C@@H]1CCCN1)C(=O)N[C@@H](CC(C)C)C(=O)N[C@@H](CC(C)C)C(=O)N[C@@H](Cc1c[nH]c2ccccc12)C(=O)N[C@@H](CCC(N)=O)C(=O)N1CCC[C@H]1C(=O)N[C@H](C(=O)N1CCC[C@H]1C(=O)N[C@H](C(=O)N[C@@H](Cc1c[nH]cn1)C(=O)N[C@H](C(=O)N[C@H](C(=O)N1CCC[C@H]1C(=O)N[C@@H](CC(C)C)C(=O)O)C(C)C)[C@@H](C)O)C(C)C)[C@@H](C)CC [Peptide 68.0037] . Reported pIC50?
A: < 4.70

---

biological target: A*3002 (Homo sapiens, UniProt P04439, D101N/D140H/D185E/E176R/F33S/G80R/H175R/K168Q/Q94H/R138E/R41S/V100E); assay: biochemical; assay type: binding
No end group written: not given here.
Define the label as MET when IC50 is strictly less than 300 nM and as NOT MET in all remaining cases.

Solved entries:
INSERT INTO results (sequence_entry, cat) VALUES
  ('NTGILTVTY [Peptide 86.0152]', 'NOT MET'),
  ('RTDSVILNVLY [Peptide 9012.0162]', 'MET'),
  ('VTEFRWYRY [Peptide 1549.42]', 'MET'),
  ('FYSKVRKYRY [Peptide 78.0176]', 'NOT MET'),
  ('FTSMPNPEGRY [Peptide 9012.0174]', 'MET');

Q: Find out if reported IC50 for KTGILTVTY [Peptide 86.0146] is less than 300 nM
A: MET

Q: Please indicate whether the reported IC50 of MLETLNNTEY [Peptide 1580.24] is strictly below 300 nM.
A: NOT MET

Q: Report whether reported IC50 is lower than 300 nM (strictly) for EYRHYNYSVY [Peptide 78.0180]
A: MET

Q: hey, is IC50 for VTQGNLELTY [Peptide 9012.0147] lower than 300 nM or not?
A: MET

Q: A record lists LTEITGYLY [Peptide 9012.0126] . Is its IC50 below 300 nM?
A: MET

Q: Consider the sequence RTTQLFEDNY [Peptide 9012.0149] . Is its IC50 strictly less than 300 nM?
A: MET

Q: Is it true that IC50 reported for LYPEPTDLY [Peptide 78.0354] is less than 300 nM?
A: NOT MET

Q: Is the reported IC50 for RFHSIAGQY [Peptide 78.0376] strictly below 300 nM?
A: MET

Q: Hello, is IC50 of the following sequence strictly smaller than 300 nM? LQDKIIDHY [Peptide 1580.21]
A: NOT MET
